Biological target: human M1 receptor (Homo sapiens)
Sequence (P11229 whole entry): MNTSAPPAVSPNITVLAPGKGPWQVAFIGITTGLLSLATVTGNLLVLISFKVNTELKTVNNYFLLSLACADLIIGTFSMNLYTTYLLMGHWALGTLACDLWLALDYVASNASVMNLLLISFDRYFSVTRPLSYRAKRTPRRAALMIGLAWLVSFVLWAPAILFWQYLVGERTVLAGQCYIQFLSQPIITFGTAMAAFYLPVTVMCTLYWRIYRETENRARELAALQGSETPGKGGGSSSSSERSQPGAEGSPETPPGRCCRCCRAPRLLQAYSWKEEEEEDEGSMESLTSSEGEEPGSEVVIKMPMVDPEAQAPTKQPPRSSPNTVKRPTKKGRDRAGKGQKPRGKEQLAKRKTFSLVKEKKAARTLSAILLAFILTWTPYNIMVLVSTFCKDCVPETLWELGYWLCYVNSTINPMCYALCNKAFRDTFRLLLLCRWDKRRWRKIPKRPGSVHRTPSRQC
Test: In vitro functional assay of muscarinic acetylcholine receptor activity (aequorin calcium flux, reversal of EC80 acetylcholine response)
Type: cell-based
Conditions: CHO-K1 cells stably expressing human M1 receptor with aequorin; acetylcholine at EC80; calcium flux (luminescence); read-out: M1 IC50
pIC50: −log10 of the molar value.

{"columns": ["molecule", "pIC50"],
 "data": [
  ["N#Cc1ccc(N2C3CCC2CN(C(=O)COC2(c4ccc(F)cn4)CCC2)C3)nc1", "7.00 to 8.00"],
  ["N#Cc1ccc(N2C3CCC2CN(C(=O)COC2(c4cc(F)cc(C#N)c4)CC2)C3)nc1", "6.00 to 7.00"],
  ["CC(C)(NCCC(=O)N1C[C@H]2CC[C@@H](C1)N2c1ccc(C#N)cn1)c1cccc2ncccc12", "> 8.00"],
  ["CC(NCCC(=O)N1CC2CCC(C1)N2c1ccc(C#N)cn1)c1cccc2ncccc12 (racemic)", "> 8.00"],
  ["CC(NCCC(=O)N1C[C@H]2CC[C@@H](C1)N2c1ccc(C#N)cn1)c1c(F)ccc2nccn12 (mixture of isomers)", "7.00 to 8.00"],
  ["N#Cc1ccc(N2C3CCC2CN(C(=O)COCC2(c4ccccc4)CC2)C3)nc1", "6.00 to 7.00"],
  ["N#Cc1ccc(N2C3CCC2CN(C(=O)COC2(c4ccncc4F)CC2)C3)nc1", "7.00 to 8.00"],
  ["N#Cc1ccc(N2[C@@H]3CC[C@H]2CN(C(=O)CCNC2(c4cncc(F)c4)CC2)C3)nc1", "6.00 to 7.00"],
  ["CC(c1ccccc1Br)[S+]([O-])CCC(=O)N1CC2CCC(C1)N2c1ccc(C#N)cn1 (racemic)", "< 6.00"],
  ["COc1cncc(C2(OCC(=O)N3CC4CCC(C3)N4c3ccnc(C#N)c3)CCC2)c1", "> 8.00"],
  ["N#Cc1ccc(N2C3CCC2CN(C(=O)COC2(c4cncnc4)CCC2)C3)nc1", "6.00 to 7.00"],
  ["C[C@H](OCC(=O)N1C[C@H]2CC[C@@H](C1)N2c1ccc(C#N)cn1)c1ccc(F)c(F)c1", "7.00 to 8.00"],
  ["COc1ccc2c(c1)C(NCC(=O)N1CC3CCC(C1)N3c1ccc(C#N)cn1)CC2 (racemic)", "6.00 to 7.00"],
  ["CC(SCCC(=O)N1CC2CCC(C1)N2c1ccc(C#N)cn1)c1ccccc1Br (racemic)", "6.00 to 7.00"],
  ["N#Cc1ccc(N2C3CCC2CN(C(=O)CCC(F)(F)c2ccc(F)cc2)C3)nc1", "7.00 to 8.00"],
  ["COc1cncc(C(NCC(=O)N2CC3CCC(C2)N3c2ccc(C#N)cn2)C(F)F)c1 (racemic)", "> 8.00"],
  ["COc1cc(C2(OCC(=O)N3CC4CCC(C3)N4c3ccc(C#N)cn3)CCCC2)ccn1", "7.00 to 8.00"],
  ["N#Cc1ccc(N2[C@@H]3CC[C@H]2CN(C(=O)CCNC2(c4ncc(F)cc4F)CC2)C3)nc1", "6.00 to 7.00"],
  ["N#Cc1ccc(N2[C@@H]3CC[C@H]2CN(C(=O)CCNC2(c4cccc5ncccc45)CC2)C3)nc1", "> 8.00"]
]}
